Where do these numbers come from? They come from paper PMC9090415.

Target: P. falciparum apicoplast DNA polymerase (Pf-apPOL) (Plasmodium falciparum)
Assay: Fluorescence-based high-throughput DNA polymerase assay (molecular beacon), primary screen and dose-response
Assay type: biochemical
Conditions: DRC-2; 40'; concentration 2.5
Please respond with reported % inhibition Apol 40' for every item in the list.
Answers are plain numbers, in %.

In the examples that follow, each entry is paired with its recorded % inhibition Apol 40'.
Cc1cc(C)cc(-n2nc3c(c2NC(=O)c2ccco2)CSC3)c1 [KU0055926]	12
O=C1N/C(=N/c2ccccc2Cl)S/C1=C/c1ccc([N+](=O)[O-])o1 [KU0054524]	14
O=C(Cn1ccc2c(=O)[nH]ccc21)Nc1cc(F)ccc1F [Molecule 42, O=C(Cn1ccc2c1cc[nH]c2=O)Nc1cc(F)ccc1F]	2.11

Fill in % inhibition Apol 40' for each of the 7 compounds listed.
1. COc1ccc(/C=C/c2cc(C(=O)O)c3ccccc3n2)cc1 [Molecule 5, COc1ccc(cc1)/C=C/c1nc2ccccc2c(c1)C(=O)O]
2. O=C(Cn1ccc2c(=O)[nH]ccc21)Nc1cccc(Cl)c1 [Molecule 23, O=C(Cn1ccc2c1cc[nH]c2=O)Nc1cccc(c1)Cl]
3. Cc1ccc(-n2nnc(C(=O)O)c2-c2ccccn2)c(F)c1 [Molecule 54, Cc1ccc(c(c1)F)n1nnc(c1c1ccccn1)C(=O)O]
4. Cc1cccc(CC(=O)N2CCc3c(nc4cc(-c5ccccc5)[nH]n4c3=O)C2)c1 [Molecule 12]
5. CN(C)C1C(c2ccccc2)=C(c2ccccc2)SC(c2ccccc2)C1[N+](=O)[O-] (stereo not shown) [KU0268387]
6. O=C(Nc1ccc2c(c1)Cc1cc(NC(=O)c3ccco3)ccc1-2)c1ccco1 [KU0038977]
7. O=C(CSc1nnc(-c2ccncc2)[nH]1)c1ccc(O)c(O)c1 [Molecule 89]

Reply:
1: 46; 2: 6; 3: 5.55; 4: 5.58; 5: 1.84; 6: 30; 7: 53

###

Target: P. falciparum apicoplast DNA polymerase (Pf-apPOL) (Plasmodium falciparum, UniProt Q8ILY1)
Sequence (Q8ILY1 entry or part of it): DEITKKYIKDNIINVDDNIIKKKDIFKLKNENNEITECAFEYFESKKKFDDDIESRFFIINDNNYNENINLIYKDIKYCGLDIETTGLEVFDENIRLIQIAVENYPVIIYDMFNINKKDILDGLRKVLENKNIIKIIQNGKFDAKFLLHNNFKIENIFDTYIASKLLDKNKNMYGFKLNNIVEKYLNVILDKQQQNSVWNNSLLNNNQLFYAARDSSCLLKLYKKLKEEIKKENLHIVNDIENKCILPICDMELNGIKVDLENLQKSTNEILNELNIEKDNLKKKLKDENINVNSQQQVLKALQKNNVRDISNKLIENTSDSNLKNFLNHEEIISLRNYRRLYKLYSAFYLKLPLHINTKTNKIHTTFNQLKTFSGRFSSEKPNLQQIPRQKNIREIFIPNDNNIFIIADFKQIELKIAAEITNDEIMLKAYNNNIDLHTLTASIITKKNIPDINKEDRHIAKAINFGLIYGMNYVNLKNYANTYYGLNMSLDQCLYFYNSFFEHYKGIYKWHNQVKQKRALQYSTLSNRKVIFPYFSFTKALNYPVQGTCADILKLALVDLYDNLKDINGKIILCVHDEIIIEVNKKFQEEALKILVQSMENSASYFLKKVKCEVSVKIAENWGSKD
Test: Fluorescence-based high-throughput DNA polymerase assay (molecular beacon), primary screen and dose-response;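 further: compound concentration given in µM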
Type: biochemical
Details: DRC-2; concentration 5; 40'
From the text: The HT assay employs a molecular beacon, a stem-loop DNA template with a Cy3 dye and the Black Hole Quencher on the 3′ and 5′ ends of the DNA, respectively. Pf-apPOL concentration is based on a calculated absorptivity of ε280 = 56750 M^−1 cm^−1. […] To identify apPOL inhibitors we utilised our previously developed high-throughput DNA polymerase assay. […] The assay accurately recapitulates the kinetic behaviour of apPOL, as measured through more conventional low-throughput gel-based assays. […]
Please respond with reported % inhibition Apol 40' for every item in the list.
Answers are plain numbers, in %.

In the examples that follow, each entry is paired with its recorded % inhibition Apol 40'.
O=[N+]([O-])c1ccc(SCc2ccco2)c2cccnc12	33
O=C(Cc1cccs1)N1CCN(c2nc(CN3CCOCC3)cs2)CC1	22
COc1cc(/C=C2\C(=O)N(c3ccc(C(=O)O)cc3)N=C2C(F)(F)F)ccc1OCC(C)C	-5
Cc1ccc(C2=N/C(=C\c3ccc(I)o3)C(=O)O2)cc1[N+](=O)[O-]	32

Continue with the compound presented below.
Ask: Let me know recorded % inhibition Apol 40' for CCOc1ccc2cc(C3=NN(C(=O)CCC(=O)O)C(c4ccc(C)cc4)C3)c(=O)[nH]c2c1 (centres unmarked) , thanks.
Reply: 6
